# assay procedure: CC50 assay in Huh-7 HCV replicon cells (CellTiter-Glo)
# Format: cell-based, human
# condition summary: human, 50% cytostatic concentration
metric: CC50 at 3 days
The answer should read as a number with its unit following.

| molecule | metric | observed measurement |
| --- | --- | --- |
| Cc1cccc(NC(=O)N2CCN(c3nc(N)nc4ccc(-c5ccc6c(c5)OCO6)nc34)CC2)c1 [Example 190] | CC50 at 3 days | 0.61 µM |
| COc1ccc(-c2ccc3nc(N)nc(Nc4cccc(Br)c4)c3n2)cc1OC [Example 34] | CC50 at 3 days | 7.7 µM |
| Nc1nc(OCC(F)(F)F)c2nc(-c3ccc(F)cc3)ccc2n1 [Example 351] | CC50 at 3 days | 25.1 µM |

Asked: Please list CC50 at 3 days recorded for the molecule COc1ccc(-c2ccc3nc(N)nc(N4CCN(CC(=O)N5CCOCC5)CC4)c3n2)cc1OC [Example 265]
Given back: 2.6 µM

Asked: Please list CC50 at 3 days recorded for the molecule Nc1nc(OCCF)c2nc(-c3ccc(F)cc3)ccc2n1 [Example 417]
Given back: 25.1 µM

Asked: Please list CC50 at 3 days recorded for the molecule Nc1nc(N2CCN(C(=O)COc3ccc(Cl)cc3)CC2)c2nc(-c3ccc4c(c3)OCO4)ccc2n1 [Example 187]
Given back: 1.2 µM

Asked: Please list CC50 at 3 days recorded for the molecule CC(C)COc1nc(N)nc2ccc(-c3ccc(F)cc3)nc12 [Example 293]
Given back: 25.1 µM

Asked: Please list CC50 at 3 days recorded for the molecule CC(C)C(=O)Nc1ccc(-c2ccc3nc(N)nc(N4CCOCC4)c3n2)cc1 [Example 501]
Given back: 7.3 µM

Asked: Please list CC50 at 3 days recorded for the molecule CC(=O)N1CCN(c2nc(N)nc3ccc(-c4ccc(F)cc4)nc23)CC1 [Example 320]
Given back: 19.9 µM

====

The entries below are paired with their reported melting point.
Write it as a number; the unit °C goes unstated.

Some solved entries appear below for comparison.
| compound | value unit | melting point |
| --- | --- | --- |
| CCOCCOc1nc(N)nc2ccc(-c3ccc(F)cc3)nc12 [Example 304] | °C | 192 |
| COCCOc1nc(N)nc2ccc(-c3ccc(F)cc3)nc12 [Example 305] | °C | 204 |
| CCOCCOc1nc(N)nc2ccc(-c3cccc(F)c3)nc12 [Example 303] | °C | 165 |

For the next question, use this compound.
Asked: Please list melting point recorded for the compound CCOCCOc1nc(N)nc2ccc(-c3ccccc3F)nc12 [Example 302]
Given back: 163

====

# assay procedure: CC50 assay in Huh-7 HCV replicon cells (CellTiter-Glo)
# Assay type: cell-based, human
# condition summary: human, 50% cytostatic concentration
metric: CC50 at 3 days
The answer should read as a number with its unit following.

| compound | metric | observed measurement |
| --- | --- | --- |
| CCNc1nc(N)nc2ccc(-c3ccc(F)cc3)nc12 | CC50 at 3 days | 30 µM |

Asked: Please list CC50 at 3 days recorded for the compound "Cc1cccc(OCC(=O)N2CCN(c3nc(N)nc4ccc(-c5ccc(F)cc5)nc34)CC2)c1"
Given back: 3.4 µM

Asked: Please list CC50 at 3 days recorded for the compound "CC(=O)Nc1ccc(-c2ccc3nc(N)nc(OC(C)C)c3n2)cc1"
Given back: 25.1 µM

Asked: Please list CC50 at 3 days recorded for the compound "CC(=O)Nc1nc(OC(C)C)c2nc(-c3ccc(F)cc3)ccc2n1"
Given back: 25.1 µM

Asked: Please list CC50 at 3 days recorded for the compound CCC(C)Oc1nc(N)nc2ccc(-c3ccc(F)cc3)nc12 (stereo not drawn)
Given back: 37.5 µM

Asked: Please list CC50 at 3 days recorded for the compound "COc1ccc(-c2ccc3nc(N)nc(NCCC(=O)N4CCN(C(C)=O)CC4)c3n2)cc1OC"
Given back: 25.1 µM
